The measurements presented in this section are drawn from paper PMC5540273.

system: GAK; settings: concentration: 1 μM,replicates: in singlicate; n = 1;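 further: KINOMEscan kinase panel screen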
Classify as follows. Reported %Inh greater than or equal to 20%: fulfilled. Reported %Inh below: not fulfilled.

COMPOUND: O=C(Nc1cccc(Oc2ccc3nccn3n2)c1)Nc1cccc(C(F)(F)F)c1
DISCRETE_LABEL: not fulfilled
--
COMPOUND: Cn1ccc2ncnc(Oc3ccc(NC(=O)Nc4cnn(C(C)(C)C)c4)c(Cl)c3)c21
DISCRETE_LABEL: not fulfilled
--
COMPOUND: Cl.Nc1n[nH]c2cc(-c3ccccn3)ccc12 [GSK2189892]
DISCRETE_LABEL: not fulfilled
--
COMPOUND: Cc1ccc(Nc2ccnc(Nc3ccc4c(c3)CS(=O)(=O)C4)n2)cc1O.Cl [GW579362]
DISCRETE_LABEL: fulfilled
--
COMPOUND: N#Cc1cccc(C(=O)NC2CCN(c3ccnc(Nc4ccc(F)cc4)n3)C2)c1 (centres unmarked) [GSK1379708]
DISCRETE_LABEL: not fulfilled
--
COMPOUND: O=C1NCCc2[nH]c(-c3ccncc3)cc21
DISCRETE_LABEL: not fulfilled
--
COMPOUND: O=C(Nc1n[nH]c2cc(-c3ccco3)ccc12)C1CC1 [SB-737447]
DISCRETE_LABEL: not fulfilled
--
COMPOUND: COC(=O)c1cccc(NC(=O)NC2CCN(c3ccnc(Nc4cc(OC)c(OC)c(OC)c4)n3)C2)c1 (centres unmarked) [GSK1379767]
DISCRETE_LABEL: fulfilled
--
COMPOUND: CC(C)c1nc(-c2cccc(NS(=O)(=O)c3ccccc3)c2)c(-c2ccnc(Nc3ccc4c(c3)CN(C)CC4)n2)s1 [GSK1649598]
DISCRETE_LABEL: fulfilled
--
COMPOUND: Cn1ccc2ncnc(Oc3ccc(NC(=O)Nc4cc(C(C)(C)C)on4)c(Cl)c3)c21
DISCRETE_LABEL: not fulfilled
--
COMPOUND: C[C@@H]1CCN(C(=O)N2CCCC2)C[C@@H]1N(C)c1ncnc2[nH]ccc12
DISCRETE_LABEL: not fulfilled
--
COMPOUND: CCCC(=O)Nc1n[nH]c2ncccc12 [SB-601436]
DISCRETE_LABEL: not fulfilled
--
COMPOUND: CN(c1ccc2c(c1)nc(NCc1ccc(F)cc1)n2C)c1ccnc(Nc2ccc(CS(C)(=O)=O)cc2)n1.Cl [GW813244]
DISCRETE_LABEL: not fulfilled
--
COMPOUND: Cc1cccc2c(-c3ccncc3)c(-c3ccc(F)cc3)nn12.Cl [GW461487]
DISCRETE_LABEL: fulfilled
--
COMPOUND: CN(c1cccc(CNc2nc(Nc3ccc4c(c3)CC(=O)N4)ncc2C(F)(F)F)c1)S(C)(=O)=O
DISCRETE_LABEL: fulfilled
--
COMPOUND: COc1cc2nccc(Nc3ccc(Oc4ccccc4)cc3)c2cc1OC.Cl [GI261656]
DISCRETE_LABEL: not fulfilled
--
COMPOUND: O=C(Nc1ccc(Oc2ccc3nc(NC(=O)C4CC4)cn3n2)c(F)c1)c1cccn(-c2ccccc2)c1=O
DISCRETE_LABEL: not fulfilled
--
COMPOUND: CN1CCN(CCNc2nc3cc(Oc4ccc(NC(=O)Nc5cc(C(F)(F)F)ccc5F)cc4)ccc3[nH]2)CC1.Cl.Cl [GW768504]
DISCRETE_LABEL: not fulfilled
--
COMPOUND: COc1cccc(C2=C(Nc3cccc(Cl)c3)C(=O)NC2=O)c1 [SB-341556]
DISCRETE_LABEL: not fulfilled
--
COMPOUND: CSc1nccc(-c2c(-c3ccc(F)cc3)ncn2CCCN2CCOCC2)n1.Cl [SB-217146]
DISCRETE_LABEL: not fulfilled
--
COMPOUND: Cn1ccc2ncnc(Oc3ccc(NC(=O)Nc4cncc(C(F)(F)F)c4)c(Cl)c3)c21
DISCRETE_LABEL: not fulfilled
--
COMPOUND: c1ccc(Oc2ccc(Nc3ccnc4ccc(-c5ccccn5)cc34)cc2)cc1 [GW407034]
DISCRETE_LABEL: not fulfilled
--
COMPOUND: Cl.c1ccc(Oc2ccc(Nc3ccnc4cc(-c5ccc(CN6CCNCC6)o5)ccc34)cc2)nc1 [GW567142]
DISCRETE_LABEL: fulfilled
--
COMPOUND: O=C(Nc1cccc(C(F)(F)F)c1)c1cccc(Oc2ccc3nccn3n2)c1
DISCRETE_LABEL: not fulfilled
--
COMPOUND: C[C@@H]1CNc2c(sc3ccc4nc(-c5ccncc5)ccc4c23)C(=O)N1
DISCRETE_LABEL: not fulfilled
--
COMPOUND: COC(=O)Nc1nc2cc(Oc3ccc(NC(=O)Nc4cc(C(F)(F)F)ccc4Cl)cc3)ccc2[nH]1.Cl [GW697465]
DISCRETE_LABEL: not fulfilled
--
COMPOUND: Cc1ccc(CC(=O)N2CCc3cc(-c4cn(C)c5ncnc(N)c45)ccc32)cc1 [GSK2634758]
DISCRETE_LABEL: fulfilled
--
COMPOUND: NC(=O)c1ccc(-c2cc3ncnc(SCC(=O)O)c3s2)cc1
DISCRETE_LABEL: fulfilled
--
COMPOUND: COc1ccc(Nc2nccc(N3CCC(NC(=O)c4cccc(C#N)c4)C3)n2)cc1 (centres unmarked) [GSK1379730]
DISCRETE_LABEL: not fulfilled
